Entry source: paper PMC5540273

System: GRK1;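 also: KINOMEscan kinase panel screen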
conditionContext: concentration: 1 μM, replicates: in singlicate; n = 1
Exam item: assign yes to entries whose %Inh is below 4% and no to entries at or above 4%. Note that a value of exactly 4% receives no.

Some entries whose results are on file:
QUERY: # check: %Inh < 4% for COc1ccc(-c2cc3c(C)nc(N)nc3n([C@H]3CC[C@H](OCCO)CC3)c2=O)cn1
RESULT: yes

QUERY: Quick check: does Cc1nnc(-c2ccc3ncn(-c4ccc(S(C)=O)cc4)c3c2)o1 (stereo not shown) have %Inh under 4%?
RESULT: no

QUERY: For Cn1c(=O)c(F)c(Nc2ccc(I)cc2F)c2c(=O)n(OC[C@H](O)CO)cnc21 , is the recorded %Inh below the cut-off of 4%?
RESULT: no

Further cases:
QUERY: Is it true that %Inh reported for CN(C)c1cc(-c2ccc3c(N)n[nH]c3c2)nc(N)n1 is less than 4%?
RESULT: yes
